Experiment: NCI Yeast Anticancer Drug Screen. Data for the cln2 rad14 strain (AID 165);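 note: 0% = growth equal to vehicle treated cultures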
Details: S. cerevisiae cln2 rad14 strain, at 50.0 µM, active compounds read high
Compounds without any hit were thinned out: in the full panel of roughly 79,000, 15% have a hit.
So basically: growth inhibition at 70% or higher? That is Satisfied. Lower than 70%? That is Not satisfied.

N#Cc1cc2cccn2c2c1cnn2-c1ccccc1 ... Not satisfied

Query: # check: growth inhibition of CN(C)C1CCC(N=Nc2cc([N+](=O)[O-])ccc2C(=O)O)CC1 (stereo not given) is greater than or equal to 70%
Reply: Not satisfied

Query: Please tell me: is the compound `NNCc1cc(Cl)c2cccnc2c1O` at or over 70% in terms of growth inhibition?
Reply: Satisfied

Query: API: above_or_equal(metric=growth inhibition, cutoff=70%) for item `COc1ccccc1/C=C\C(=O)c1ccccc1`
Reply: Satisfied

Query: Kindly determine if growth inhibition recorded for `CC(C)(C)C(=O)CC(=O)C(F)(F)C(F)(F)C(F)(F)F.CC(C)(C)C(=O)CC(=O)C(F)(F)C(F)(F)C(F)(F)F.CC(C)(C)C(=O)CC(=O)C(F)(F)C(F)(F)C(F)(F)F.[Fe]` is above or exactly 70%.
Reply: Not satisfied

Query: Identify whether the reported growth inhibition of the following compound is 70% or greater: O=[N+]([O-])C1C(c2ccccc2)CC=CC1N1CCCC1 (stereo not given)
Reply: Satisfied

Query: Quick check: does CC(/C(=N/NC(=O)C(N)=O)c1c(Cl)ccc(Cl)c1O)C1(O)C(=O)Nc2ccccc21 (stereo not given) have growth inhibition greater than or equal to 70%?
Reply: Not satisfied

Query: Does the compound COc1cc2c(c(OC)c1OC)-c1ccc(SC)c(=O)cc1[C@@H](NC1OC(COC(C)=O)C(OC(C)=O)C(OC(C)=O)C1OC(C)=O)CC2 (stereo not given in full) have recorded growth inhibition that is 70% or more?
Reply: Satisfied

Query: I'd appreciate it if you could say whether `Cc1c(Cl)cccc1N=NC(=O)NNc1cccc(Cl)c1C` has growth inhibition at least equal to 70%.
Reply: Satisfied

Query: Answer whether growth inhibition of `NC(=O)/C=C/C(=O)c1c(Cl)cccc1Cl` is greater than or equal to 70%.
Reply: Satisfied

---

Assay: NCI Yeast Anticancer Drug Screen. Data for the rad50 strain (AID 155);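 note: 0% = growth of vehicle-only cultures of the same strain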
Details: S. cerevisiae rad50 strain growth inhibition; at 5.0 µM (retest, dose inferred, filed as 0.5)
Compounds without any hit were thinned out: in the full panel of roughly 79,000, 15% have a hit. Activity calls are given as the source filed them. No stated cut-off is given here; in the data, active means growth inhibition above about 70%; inactive means the rest.
Pick one and only one: 1 = active, 0 = inactive

S=C(N/N=C/c1ccccn1)N1CCCCCC1 ... 1

Query: Entry `CCOC(=O)C(=CNC(=S)Nc1c(CC)cccc1C(C)(C)C)C(=O)OCC` : call = ?
Reply: 0

Query: Dear all, I need the recorded test outcome for `COC(=O)c1cc(=O)n(-c2ccccc2OC)c(SC)n1` , thank you.
Reply: 0

---

Test: NCI Yeast Anticancer Drug Screen. Data for the bub3 strain (AID 167)
Conditions: S. cerevisiae bub3 mutant strain, at 5.0 µM (retest, dose inferred, filed as 0.5)
This is part of a sample that, as a whole, favours compounds with a hit. Of some 79,000 tested, about 15% had one in any assay. Active and inactive are the calls of the source. No stated cut-off is given here; in the data, active means growth inhibition above about 70%; inactive means the rest.
Respond only with the outcome that fits, drawn from 1 for active, 0 for inactive

CC(=O)OC1(C)C(=C(Cl)Cl)C2c3ccccc3C1c1ccccc12 (stereo not given) ... 0
c1ccc2c(c1)Nc1ccccc1[P+]21c2ccccc2Nc2ccccc21 ... 1
NNC(=O)NN=C(c1ccccc1)c1ccccc1 ... 0
CN(C)N=Nc1ccc(Cl)c2ncccc12 ... 0
O=C1CCCC/C1=C(\Br)I ... 0

Query: Outcome logged for `COc1ccccc1OC(=O)Oc1ccccc1OC` in this assay:
Reply: 0

Query: Hey, what did the test say about CC1=NN(C(=O)c2ccc(Cl)cc2)C(=O)C1N=Nc1ccc(S(=O)(=O)Nc2ncccn2)cc1 (stereo not given) ?
Reply: 0

Query: For COCC1C(=O)c2cc3c(cc2C12C=CC1(C=C2)OCCO1)OCO3 (stereo not given) , which call appears in the assay record?
Reply: 0

Query: Recorded test call requested for `CCOc1ccccc1N1C(=O)C=CC1=O`
Reply: 1

Query: Assay outcome for `CN(C=O)c1ccc2c(c1)Cc1ccccc1-2` : what was it?
Reply: 0

---

Experiment: NCI Yeast Anticancer Drug Screen. Data for the rad50 strain (AID 155);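 note: 0% = growth of vehicle-only cultures of the same strain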
Conditions: S. cerevisiae rad50 strain growth inhibition; at 5.0 µM (retest, dose inferred, filed as 0.5); active compounds read high
The panel holds about 79,000 compounds, 15% with a hit somewhere; the sample as a whole holds those more often.
Decision: growth inhibition compared against 30%; not below it gives Satisfied, below it gives Not satisfied.

Solved cases below.
COC1=CC(=O)c2c(O)c3c(c(O)c2C1=O)C[C@](C)(O)C[C@@H]3O ... Not satisfied
CCCCCCCCCCCCCCCCNC(=S)N/C=C(/C#N)C(=O)OC ... Satisfied
Cc1ccc(I)c(C(C)(C)O)c1 ... Not satisfied
Nc1ccc(Cc2ccc(Cl)cc2)cc1 ... Not satisfied
O=C1CCCC/C1=C(\Br)I ... Satisfied
CSc1cc(C(=O)O)nc(N)n1 ... Not satisfied

Query: Please indicate if the recorded growth inhibition for OC(c1cc2ccccc2o1)c1cc2ccccc2s1 (stereo unspecified) meets or exceeds 30%.
Reply: Not satisfied

Query: Could you tell me if the measured growth inhibition of `COc1ccc(OC)c(N=Nc2c(C)[nH]n(C(N)=S)c2=O)c1` reaches 30% or more?
Reply: Not satisfied

Query: Hi team, for O=[N+]([O-])OC1CCCC(O[N+](=O)[O-])c2c1n([O-])c1ccccc1[n+]2=O (stereo unspecified) , is the recorded growth inhibition at or above 30%?
Reply: Satisfied

Query: State whether the measured growth inhibition reaches 30%, counting equality as reaching it, for `CC(=O)n1nc2c(c1CC(C)C)C(=O)C(Nc1ccccc1)=CC2=O`
Reply: Not satisfied

Query: Does `C[CH2][Sn]([CH2]C)([O]C(=O)c1c(F)cccc1F)[O][Sn]([CH2]C)([CH2]C)[O]C(=O)c1c(F)cccc1F` have a reported growth inhibition of at least 30%?
Reply: Satisfied

---

Experiment: NCI Yeast Anticancer Drug Screen. Data for the cln2 rad14 strain (AID 165);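 note: 0% = growth equal to vehicle treated cultures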
Conditions: S. cerevisiae cln2 rad14 strain, at 50.0 µM
The panel holds about 79,000 compounds, 15% with a hit somewhere; the sample as a whole holds those more often. Activity calls are given as the source filed them. No stated cut-off is given here; in the data, active means growth inhibition above about 70%; inactive means the rest.
// one of 1.0 = active, 0.0 = inactive, no free text

Solved entries:
O=C(CBr)c1ccc2cc(Br)c3ccccc3c2c1 ... 0.0
CCC[CH2][Ge]([CH2]CCC)([CH2]CCC)[O]C(C)=O ... 1.0
CCCCCC=C(c1cc(Br)cc(C(=O)O)c1O)c1cc(Br)cc(C(=O)O)c1O ... 0.0
C=CCNC(=O)NC1=CSC2=NC(=O)C3(NN12)c1ccccc1-c1ccccc13 ... 1.0
CN(C)CC1Cc2ccsc2C1=O (stereo unspecified) ... 1.0

Query: // outcome(item) with item = `COC(=O)C(C#N)=C(SC)SC`
Reply: 1.0

Query: For `CC(=Nc1ccc(N(C)C)cc1)c1ccccc1` , which call appears in the assay record?
Reply: 0.0

Query: Identify the outcome logged in this assay for the compound shown: `Cc1c(C)c2cc3c(=O)ccoc3c(C)c2oc1=O`
Reply: 0.0

Query: Dear colleague, could you share the recorded outcome for `Cc1ccc2c(c1)C(=O)N(CC[P+](c1ccccc1)(c1ccccc1)c1ccccc1)C2=O` when you have a moment?
Reply: 0.0

Query: Could you please tell me the result logged for CCOC(=O)CC(NC(=O)c1[nH]cnc1/N=N/N(C)C)C(=O)OCC (stereo unspecified) in this assay?
Reply: 1.0

Query: State the result this test recorded for `CC(C)c1ccc(S(=O)(=O)c2ccc([N+](=O)[O-])cc2[N+](=O)[O-])cc1` .
Reply: 1.0

---

Test: NCI Yeast Anticancer Drug Screen. Data for the bub3 strain (AID 167)
Conditions: S. cerevisiae bub3 mutant strain, at 50.0 µM, active compounds read high
The panel holds about 79,000 compounds, 15% with a hit somewhere; the sample as a whole holds those more often.
The label depends only on growth inhibition: Fulfilled if it is at least 60%, Not fulfilled if it is smaller.

Query: API: above_or_equal(metric=growth inhibition, cutoff=60%) for item `CCN(CC)CCOC(=O)Cc1cccc2c(=O)cc(-c3cccs3)oc12`
Reply: Not fulfilled

Query: Is it the case that `CSC(=S)N/N=C(\C)c1nccnc1C` has growth inhibition reaching or exceeding 60%?
Reply: Fulfilled

Query: Exam item: decide whether the reported growth inhibition for `CN(C)/N=C(/CC(O)(C(F)(F)F)C(F)(F)F)c1ccc([N+](=O)[O-])cc1` is at least 60%.
Reply: Not fulfilled

Query: Reported growth inhibition at or above 60%? `CN(C)CCC(/C=C/c1ccccc1)=N\Nc1c(F)c(F)c(F)c(F)c1F`
Reply: Not fulfilled

Query: Decide: growth inhibition of `O=C1c2ccccc2-c2ccccc2C(=O)C1(Br)Br` >= 60%?
Reply: Fulfilled
